# Tested on: Bacillus subtilis DB104 (SP-AmyQ fusion secretion)
# assayProcedure: AmyQ secretion efficiency, weighted average sort bin (1 = best secretion, 10 = worst) (bin number (weighted average, 1-10)); higher = lower secretion efficiency
AmyQ secretion efficiency reference
endpointLabel: AmyQ secretion efficiency

MKKKQVSHAIIISVMLSFVIAVFRRHRKHASELTP = 7.4
MFNRLFRVCFLAALIMAFTLPNSVYSQKP = 3.32
MKKIMSAFVGMVLLTIFCRRRQASAAYD = 7.16
MRMLWRSLALCGLALTLAPCAQGAEP = 2.58
MRKYTVIASILLSFLSVLFGFHHESKAFPV = 3.04
MRSYIKVLTMCFLGLILFVPTALPDNS = 7.02
MKKVILAAFILVGSTLGAFSFSSDASAKHV = 2.08
MKRRRQRQTTLPLLIVCLAFSSFSASARAASE = 3.83
MKWMCKKCCAAVLLAGGAAQAEAV = 5.26
MKKTIMSFFFVAVAALSTTAFGAHASAKEI = 2.53
MKSKGSIMACLILFSFTITEDEEEETISAFSN = 6.65
MKKRKRRNFKRFIAAFLVLALMISLVPDVLAKST = 3.69
MRKSLITLGLASVIGTKASAETL = 5.6
MPYLKRVLLLLVTGLFMSLFAVTATASMQTG = 1.29
MSKRLIAPMLLSAASLAFFAMSGSAQAAAY = 3.13
MFKKHTISLLIIFLLASAVLAKPPPTTATIEAHTV = 7.2
MNLRKILLSSALSLGMLEEEDEEVLATSS = 4.45
MNLRKILLSSALSLGMLVSAAPTLATSS = 2.34
MKKISSVMLATALFLGLTPAGANAADL = 3.26
MAIIIAIIAAVIVIAALITFNVSNASPG = 7.09
MPYLKRVLLLLVTGLFMSLFAVTATASWQTG = 2.84
MIAYFGKCLLLVTIMFLGVLFGMPQANHG = 5
MNKKYFVLIVCIIFTSALFPTDKKVTAAQG = 1.1
MLCVMMLLFSAIASFPVSAQMKDQ = 6.09
MRGKSAVLLSLIMLIAGFLISFPFQM = 5.95
MRRKKRKAVLLSLIMLIAGFLISFSFQM = 7.79
MKKQIITATTAVVLGSTLFADDEASAQSI = 2.17
MKRLFMKASLVLFAVVFVFAVKGAPKAKAETH = 1.9

---

# Tested on: Bacillus subtilis DB104 (SP-AmyQ fusion secretion)
# assayProcedure: AmyQ secretion efficiency, weighted average sort bin (1 = best secretion, 10 = worst) (bin number (weighted average, 1-10)); higher = lower secretion efficiency
Binary classification by AmyQ secretion efficiency, with 6 as an inclusive lower bound for true; all other cases are false.

MNIKKFAKQATVLTFTTALLAGGATQAFAKET [wt_31] = false
MNLRKILLSSALSLGMLVSAAPVLWTSS = true
MNKPTKLFSTLALAAGMTKDKTTSAGTIHAQQP = true
MKKRLIGFLVLVPALIMSGITLLEANKK = true
MLKKIALTLCPAIVAPASAHVS = true
MLKKKWMVGLLAGCLAAGGFSYNAFATSD = false

---

# System: Bacillus subtilis DB104 (SP-AmyQ fusion secretion)
# assayProcedure: AmyQ secretion efficiency, weighted average sort bin (1 = best secretion, 10 = worst) (bin number (weighted average, 1-10)); higher = lower secretion efficiency
endpointLabel: AmyQ secretion efficiency

MKKSYKATALFLGLTPAGANAADL = 8.17
MKTKTLFIFSAILTLSIFAPNEVFAQTA = 1.58
MKKRITYSLLALLAVVAFAFFISSKAKAAEA = 5.19
MIVLSTIITFNFIILLFISIIVFLSVIQPQPS = 5.66
MSSYIKVLTMCFLGLILFVPTALADNS = 1.7
MTLTSGFLLLSCLALSTVFVATTIANAPTH = 5.02
MRPVFPLILSAVLFLSCFFGARQTEASISKR = 3
MKKCLLFLTTIALILSLSTNGFAKNT = 6.12
MKKVLMAFIICLSLILQGGKGPPGGAKAESV = 5.23
MKLKKRVSMFLVALTMCGGLFVRRRKRAKAVKT = 6.98
MFKKHTISLLIIFLLASAVLAKPIEYHTV = 5.13
MKTLRTLCVLMILSGVIFFGLKIDRKDI = 5.46
MRSYIKVLTMCFLGLILFVPTGLADNS = 1.86
